Reported phage ELISA signal OD450 values follow for various binders
molecular target: T1, 5-Helix (HIV-1 group M subtype B, HXB2 (gp41 …, stabilised)); experiment: ELISA; conditions: one partner purified
T1 construct: also called designed protein based on HIV-1 gp41
Express the result in OD450 but write the number alone.

Examples from the recorded data:
25G8 bivalent scFv on phage (scFv, V domains shown) VH: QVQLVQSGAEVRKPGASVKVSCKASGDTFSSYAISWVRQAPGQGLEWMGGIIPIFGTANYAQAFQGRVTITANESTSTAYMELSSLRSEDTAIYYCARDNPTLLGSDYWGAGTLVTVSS VL: DIQMTQSPSTLSASIGDRVTITCRASESIGRSLAWYQQKPGKAPKLLIYRASRLASGAPSRFSGSGSGTDFTLTISSLQPDDFATYYCQQSSTTPLTFGGGTKLEIK : 2.1
25A12 bivalent scFv on phage (scFv, V domains shown) VH: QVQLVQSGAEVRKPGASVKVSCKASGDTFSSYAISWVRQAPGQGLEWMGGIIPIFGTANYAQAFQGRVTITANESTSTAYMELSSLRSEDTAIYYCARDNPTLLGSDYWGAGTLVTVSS VL: DIQMTQSPSTLSASIGDRVTITCRASEGIHRYLAWYQQKPGKAPKLLIYHASRLASGAPSRFSGSGSGTDFTLTISSLQPDDFATYYCQQRANYPYTFGGGTKLEIK : 3.2

Then this binder:
Query: Report measured phage ELISA signal OD450; entry is 25D9 bivalent scFv on phage (scFv, V domains shown) VH: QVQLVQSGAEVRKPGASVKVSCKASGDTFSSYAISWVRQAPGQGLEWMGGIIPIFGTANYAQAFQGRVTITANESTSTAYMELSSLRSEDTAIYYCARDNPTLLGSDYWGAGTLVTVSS VL: DIQMTQSPSTLSASIGDRVTITCRASEDILGRLAWYQQKPGKAPKLLIYRASRLASGAPSRFSGSGSGTDFTLTISSLQPDDFATYYCQQRANYPLTFGGGTKLEIK
Reply: 3
